System: NCI-H460
Assay: NCI tumour cell line growth inhibition, 48 h
Calls of active or inactive are those of the source. Rule as the data show it: active = GI50 up to about 1.1 µM and inactive = higher.
# valid calls are active, inactive; nothing else

Before answering, review these 5 worked examples.
Asked: Hi, do you know how CCOC(=O)c1cc2c([N+](=O)[O-])c(N)ccc2s1 came out in this test?
Given back: inactive

Asked: And then NS(=O)(=O)c1ccc(NC(=O)c2cccc3c(Nc4ccc(S(N)(=O)=O)cc4)c4ccccc4nc23)cc1 , what is it?
Given back: inactive

Asked: And then O=C1c2ccccc2C(=O)N1CC(O)COc1cccc2ccccc12 (configuration not stated) , what is it?
Given back: inactive

Asked: And then CC1OC2OC3C(OCC(O)C3O)OC(=O)[C@]34CCC(C)(C)CC3C3=CCC5[C@@]6(C)C[C@H](O)[C@H](OC7OC(CO)C(O)C(O)C7OC7OC(COC(=O)CC(C)(O)CC(=O)OC1C(O)C2O)C(O)C(O)C7O)[C@@](C)(CO)C6CC[C@@]5(C)[C@]3(C)CC4 (some centres not stated) , what is it?
Given back: inactive

Asked: And then O=C(Nc1cc([N+](=O)[O-])cc([N+](=O)[O-])c1)OC1C2CCC1C1OC1C2 (configuration not stated) , what is it?
Given back: inactive

--- query ---
Asked: Hi, do you know how CN(C)c1ccc(/N=N/c2ccccn2)cc1 came out in this test?
Given back: inactive

----------
Test system: CCRF-CEM
Test: NCI tumour cell line growth inhibition, 48 h
Activity calls are given as the source filed them. Rule as the data show it: active = GI50 up to about 1.1 µM and inactive = higher.
# valid calls are 1.0 (active), 0.0 (inactive); nothing else

Before answering, review these 3 worked examples.
Asked: Hi, do you know how O=C1c2c(ccc3c2CCCC3)CC12Cc1ccc3c(c1C2=O)CCCC3 came out in this test?
Given back: 0.0

Asked: And then CC(=O)Nc1ccc(-c2nnc(SCC(=O)Nc3ccc(Cl)cc3)o2)cc1 , what is it?
Given back: 0.0

Asked: And then C=C1C(=O)O[C@H]2C1C[C@@H](O)/C(C)=C/CC[C@@]1(C)O[C@H]21 (some centres not stated) , what is it?
Given back: 0.0

Next:
Asked: Hi, do you know how O=C1CCC2(c3ccc(Cl)cc3)Nc3cc(Cl)ccc3N12 (configuration not stated) came out in this test?
Given back: 0.0

Asked: And then CC(C)(C)NC(=O)C12C3C4C1C1C2C3C41C(=O)NC(C)(C)C (configuration not stated) , what is it?
Given back: 0.0

----------
System: DMS-114
Assay: NCI tumour cell line growth inhibition, 48 h
The source made the active and inactive calls. No stated cut-off is given here; in the data, active = GI50 up to about 1.1 µM and inactive = higher.
# valid calls are active, inactive; nothing else

Before answering, review these 3 worked examples.
Asked: Hi, do you know how Cc1nn(C(=O)CC(=O)Nc2ccc(Cl)cc2)c(C)c1/N=N/c1ccccc1C(=O)O came out in this test?
Given back: inactive

Asked: And then Nc1nc(N)c(-c2ccc(Cl)cc2)c(CCC(=O)Nc2cccc(C(F)(F)F)c2)n1 , what is it?
Given back: inactive

Asked: And then CN(C)/N=C(/c1nc2ccc([N+](=O)[O-])cc2nc1O)C(O)c1ccco1 (stereo unspecified) , what is it?
Given back: inactive

Next:
Asked: Hi, do you know how CCOc1ccccc1NC(=O)C(C#N)C1=C(Cl)C(=O)c2ccccc2C1=O (stereo unspecified) came out in this test?
Given back: active

Asked: And then COC(=O)C1C(C)N1C (stereo unspecified) , what is it?
Given back: inactive

Asked: And then O=C1Sc2sc(=S)sc2SC1c1ccccc1 (stereo unspecified) , what is it?
Given back: inactive
